# target: TYK2 (Homo sapiens (Human), UniProt P29597)
# Sequence (P29597 897-1176): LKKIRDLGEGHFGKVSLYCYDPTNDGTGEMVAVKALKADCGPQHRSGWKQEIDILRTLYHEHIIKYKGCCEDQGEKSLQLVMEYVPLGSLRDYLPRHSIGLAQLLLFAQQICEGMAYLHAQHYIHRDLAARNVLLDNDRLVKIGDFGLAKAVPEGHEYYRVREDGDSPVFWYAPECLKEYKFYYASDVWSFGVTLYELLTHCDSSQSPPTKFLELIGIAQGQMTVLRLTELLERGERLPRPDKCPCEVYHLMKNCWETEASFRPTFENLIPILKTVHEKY
# procedure-details: JAK Caliper Enzyme Assay at 1 mM ATP, TYK2
# Format: biochemical
pIC50: −log10 of the molar value.
Decision: pIC50 >= 7 yields true (1), all other cases yield false (0).

CO[C@H]1C[C@@](CC#N)(n2ccc(-c3nc(-c4cc(N)[nH]n4)cc4ncccc34)n2)C1 [Example 52] = true (1)
N#CC[C@]1(n2ccc(-c3nc(-c4c[nH]nc4N)cc4ncccc34)n2)C[C@H](C#N)C1 [Example 98] = true (1)
N#CC[C@]1(n2ccc(-c3nc(-c4ccc(N)c(C(N)=O)n4)cc4ncccc34)n2)C[C@@H](C#N)C1 [Example 225] = true (1)

Here is the next item to consider.
Reported pIC50 at or above 7? N#CC[C@]1(n2cc(-c3cc(-c4cn[nH]c4N)cc4ncccc34)cn2)C[C@H](C#N)C1 [Example 290] false (0)

----------
# target: UniProt:P23458
# procedure-details: JAK Caliper Enzyme Assay at 1 mM ATP, JAK1
# Format: biochemical
# condition-set: JAK Caliper enzyme assay
property-measured: IC50

Cn1cc(-c2cn3ncnc3c(-c3cnn(C4(CC#N)CN(S(C)(=O)=O)C4)c3)n2)cn1 = > 10 µM
N#CC[C@]1(n2ncc(-c3cc(-c4cncnc4)cc4ncccc34)n2)C[C@@H](C#N)C1 = > 10 µM
N#CC[C@]1(n2cc(-c3cc(-c4nc(CO)cs4)cc4nccn34)cn2)C[C@@H](C#N)C1 = 1.6 µM
N#CC[C@]1(n2ncc(-c3cc(-c4ncc(OCCO)cn4)cc4ncccc34)n2)C[C@@H](C#N)C1 = > 10 µM
N#CC[C@]1(n2ncc(-c3cc(-c4ccc(C(=O)O)cc4)cc4ncccc34)n2)C[C@H](C#N)C1 = 0.208 µM
CS(=O)(=O)N1CC(CC#N)(n2ncc(-c3cc(-c4cncnc4)cc4ncccc34)n2)C1 = > 10 µM
N#CC[C@]1(n2ncc(-c3cc(-c4cc5c(cn4)CCN5)cc4ncccc34)n2)C[C@@H](C#N)C1 = 9.39 µM
N#CCC1(n2ncc(-c3cc(-c4ccc(C(N)=O)cc4)cc4ncccc34)n2)CC(C#N)C1 (stereo not drawn) = 2.52 µM

Return reported IC50; argument: `Cn1cc(-c2cc3nccnc3c(-c3ccn(C4(CC#N)CN(CC(F)(F)F)C4)n3)n2)cn1` > 10 µM

Find the recorded IC50 belonging to `CS(=O)(=O)N1CC(CC#N)(n2cnc(-c3cc(-c4ccn[nH]4)cc4ncccc34)n2)C1` and report it. 7.19 µM

Consider the compound shown here: `N#CC[C@]1(n2ncc(-c3cc(-c4cccc5c4NC(=O)C5)cc4ncccc34)n2)C[C@@H](C#N)C1` What is its recorded IC50? > 10 µM

IC50 for `CS(=O)(=O)N1CC(CC#N)(n2ncc(-c3cc(-c4ccc(O)c(F)c4)cc4ncccc34)n2)C1` ? 1.24 µM

----------
# target: TYK2 (Homo sapiens (Human))
# procedure-details: JAK Caliper Enzyme Assay at 1 mM ATP, TYK2
# Format: biochemical
# condition-set: JAK Caliper enzyme assay
property-measured: pIC50
By convention, pIC50 is the negative base-10 log of a molar concentration.

N#CCC1(n2ncc(-c3cc(-c4ccc(C(N)=O)cc4)cc4ncccc34)n2)CC(C#N)C1 (stereo not shown) = 7.00
Cc1cncc(-c2cc(-c3cnn([C@]4(CC#N)C[C@@H](C#N)C4)n3)c3cccnc3c2)n1 = 5.14
CS(=O)(=O)N1CC(CC#N)(n2ncc(-c3cc(-c4cccc(CO)c4)cc4ncccc34)n2)C1 = 6.95
CS(=O)(=O)N1CC(CC#N)(n2ncc(-c3cc(-c4ccc(CN)cc4)cc4ncccc34)n2)C1 = 6.89
CS(=O)(=O)Nc1ccc(-c2cc(-c3cnn(C4(CC#N)CC(C#N)C4)n3)c3cccnc3c2)nc1 (stereo not shown) [Example 374] = 8.05
CS(=O)(=O)N1CC(CC#N)(n2cnc(-c3cc(-c4ccn[nH]4)cc4ncccc34)n2)C1 = 6.49

Attention now shifts to the item below.
For the molecule shown here, `N#CC[C@]1(n2ncc(-c3cc(-c4ncc(OCCO)cn4)cc4ncccc34)n2)C[C@@H](C#N)C1` , give the reported pIC50. 5.67

----------
# target: TYK2 (Homo sapiens (Human))
# procedure-details: JAK Caliper Enzyme Assay at 1 mM ATP, TYK2
# Format: biochemical
Labelling: IC50 reported below 70 nM becomes T; at or above becomes F.

Some solved entries appear below for comparison.
CCN1CC(CC#N)(n2ccc(-c3nc(N4CCCC4)cc4ncccc34)n2)C1 [Example 265] = F
N#CCC1(n2ccc(-c3nc(-c4cccnc4)cc4ncccc34)n2)CN(CC(F)(F)F)C1 [Example 171] = T
N#CCC1(n2ccc(-c3nc(-c4cnn(C5CCCCO5)n4)cc4ncccc34)n2)CN(CC(F)(F)F)C1 (centres unmarked) [Example 155] = F

Threshold test, IC50 < 70 nM: Cc1cn([C@]2(CC#N)C[C@@H](C#N)C2)nc1-c1nc(-c2cn[nH]c2N)cc2ncccc12 [Example 276] F

Hello, is IC50 of the following compound strictly smaller than 70 nM? CO[C@H]1C[C@@](CC#N)(n2ccc(-c3nc(-c4cn[nH]c4)cc4ncccc34)n2)C1 [Example 80] T

Is IC50 strictly under 70 nM for the entry N#CCC1(n2ncc(-c3cc(-c4nc(CO)cs4)cc4ncccc34)n2)CC(C#N)C1 (centres unmarked) [Example 340] ? T

is_below(IC50, 70 nM) for N#CC[C@]1(n2ncc(-c3cc(-c4cnn(CCO)c4)cc4ncccc34)n2)C[C@@H](C#N)C1 [Example 327] ? T

Hello, I'm reviewing records and need to know if IC50 of CO[C@H]1C[C@@](CC#N)(n2ccc(-c3nc(-c4ccc(=O)[nH]c4)cc4ncccc34)n2)C1 [Example 247] is below 70 nM. Could you check? T

----------
# target: TYK2 (Homo sapiens (Human), UniProt P29597)
# procedure-details: JAK Caliper Enzyme Assay at 1 mM ATP, TYK2
# Assay type: biochemical
pIC50: −log10 of the molar value.
Classes are defined on pIC50 with ranges one = under 6, two = from 6 up to 7, three = 7 and over

# bin label for `C[C@]1(C#N)C[C@@](CC#N)(n2ccc(-c3nc(-c4cc[nH]n4)cc4ncccc34)n2)C1` three

----------
# target: JAK1 (Homo sapiens (Human))
# Sequence (P23458 875-1153): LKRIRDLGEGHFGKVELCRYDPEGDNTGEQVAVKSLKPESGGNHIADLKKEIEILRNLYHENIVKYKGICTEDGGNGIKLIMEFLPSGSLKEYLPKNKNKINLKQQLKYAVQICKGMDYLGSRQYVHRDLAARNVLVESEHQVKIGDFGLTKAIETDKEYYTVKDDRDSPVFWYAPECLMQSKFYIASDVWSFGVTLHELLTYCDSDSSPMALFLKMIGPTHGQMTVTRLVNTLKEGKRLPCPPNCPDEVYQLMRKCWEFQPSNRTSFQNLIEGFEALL
# procedure-details: JAK Caliper Enzyme Assay at 1 mM ATP, JAK1
# Assay type: biochemical
# condition-set: JAK Caliper enzyme assay
property-measured: pIC50
The meaning of pIC50 here: minus log10 of the concentration in molar units.

Name the reported pIC50 value associated with the compound CS(=O)(=O)Nc1ccc(-c2cc(-c3cnn(C4(CC#N)CC(C#N)C4)n3)c3cccnc3c2)nc1 (stereo not drawn) [Example 374] 7.28

Suppose we examine the compound `Cn1cc(-c2cc(-c3cnn([C@]4(CC#N)C[C@H](C#N)C4)c3)n3ccnc3c2)cn1` ; what pIC50 value has been reported? 5.77

----------
# target: UniProtKB O60674
# procedure-details: JAK Caliper Enzyme Assay at 1 mM ATP, JAK2
# Type: biochemical
property-measured: IC50 (nM)
Kindly provide the numeric value in nM only, without the unit symbol.

N#CC[C@]1(n2ncc(-c3cc(-c4cnc(CO)s4)cc4ncccc34)n2)C[C@H](C#N)C1 [Example 342] = 990
N#CCC1(n2ccc(-c3nc(-c4cnn(C5CNC5)c4)cc4ncccc34)n2)CN(CC(F)(F)F)C1 [Example 115] = 327

If you can, please state the reported IC50 value of CO[C@H]1C[C@@](CC#N)(n2ccc(-c3nc(-c4cnn(CCO)c4)cc4ncccc34)n2)C1 [Example 128] . 620

Tell me the measured IC50 of CS(=O)(=O)N1CC(CC#N)(n2ccc(-c3nc(-c4ccc(S(N)(=O)=O)nc4)cc4ncccc34)n2)C1 [Example 209] , please. 433

Report IC50 for N#CC[C@]1(n2ncc(-c3cc(-c4c[nH]nc4CO)cc4ncccc34)n2)C[C@@H](C#N)C1 [Example 318] please. 137

Quick check: IC50 of N#CCC1(n2ccc(-c3nc(-c4ccn[nH]4)cc4ncccc34)n2)CC(C#N)C1 (stereo not shown) [Example 21] ? 50

IC50 for Cn1cc(-c2cc3ncccc3c(-c3ccn(C4(CC#N)CN(CC(F)(F)F)C4)n3)n2)cn1 [Example 99] ? 133

----------
# target: JAK2 (Homo sapiens (Human), UniProt O60674)
# Sequence (O60674 849-1124): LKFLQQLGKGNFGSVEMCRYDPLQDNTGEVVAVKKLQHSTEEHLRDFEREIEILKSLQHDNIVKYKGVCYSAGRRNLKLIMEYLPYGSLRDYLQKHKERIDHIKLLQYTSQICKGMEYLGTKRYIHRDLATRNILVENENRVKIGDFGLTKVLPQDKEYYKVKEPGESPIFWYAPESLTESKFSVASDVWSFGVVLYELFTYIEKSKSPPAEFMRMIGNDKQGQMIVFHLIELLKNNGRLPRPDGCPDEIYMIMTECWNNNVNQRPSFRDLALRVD
# procedure-details: JAK Caliper Enzyme Assay at 1 mM ATP, JAK2
# Format: biochemical
pIC50: −log10 of the molar value.
# pIC50 >= 6 gives satisfied, anything below gives not satisfied

Field: example entries. Status: answers known.
CO[C@H]1C[C@](CC#N)(n2cc(-c3cc(-c4c[nH]nc4N)cc4ncccc34)cn2)C1 = not satisfied
CO[C@H]1C[C@](CC#N)(n2cc(-c3nc(-c4cnn(CCO)c4)cc4ncccc34)cn2)C1 = satisfied
CS(=O)(=O)N1CC(CC#N)(n2ccc(-c3nc(-c4cnn(C(F)(F)F)c4)cc4ncccc34)n2)C1 = not satisfied
CS(=O)(=O)N1CC(CC#N)(n2ccc(-c3nc(-c4ccccc4O)cc4ncccc34)n2)C1 = satisfied

With those in mind, consider the next molecule.
Would you say `Cc1ncc(-c2cc3ncccc3c(-c3ccn(C4(CC#N)CN(S(C)(=O)=O)C4)n3)n2)cc1N` shows pIC50 at minimum 6? not satisfied
